Origin of the recorded values: patent US4659726A

- run-description: in vivo
- measurement-parameters: mouse, oral, ddy male mice, deaths counted at 10 days, Weil method, read-out: Acute toxicity LD50

[
  {
    "compound": "CCCC(C)OC(=O)Cn1cccc1-c1nc(-c2ccc(OC)cc2)c(-c2ccc(OC)cc2)s1 (stereo not drawn) [Ex. 24]",
    "LD50 at 240 h": "> 3000 mg/kg"
  },
  {
    "compound": "CCCCCOC(=O)Cn1cccc1-c1nc(-c2ccc(OC)cc2)c(-c2ccc(OC)cc2)s1 [Ex. 20]",
    "LD50 at 240 h": "> 3000 mg/kg"
  },
  {
    "compound": "C=COCCn1cccc1-c1nc(-c2ccc(OC)cc2)c(-c2ccc(OC)cc2)s1 [Ex. 39]",
    "LD50 at 240 h": "> 3000 mg/kg"
  },
  {
    "compound": "COc1ccc(-c2nc(-c3cccn3C(C)C)sc2-c2ccc(OC)cc2)cc1 [Ex. 2]",
    "LD50 at 240 h": "> 3000 mg/kg"
  },
  {
    "compound": "CCCCCCCCOC(=O)Cn1cccc1-c1nc(-c2ccc(OC)cc2)c(-c2ccc(OC)cc2)s1 [Ex. 28]",
    "LD50 at 240 h": "> 3000 mg/kg"
  },
  {
    "compound": "CCCCCCOC(=O)Cn1cccc1-c1nc(-c2ccc(OC)cc2)c(-c2ccc(OC)cc2)s1 [Ex. 27]",
    "LD50 at 240 h": "> 3000 mg/kg"
  },
  {
    "compound": "COc1ccc(-c2nc(-c3cccn3CC(F)(F)F)sc2-c2ccc(OC)cc2)cc1 [Ex. 7]",
    "LD50 at 240 h": "> 3000 mg/kg"
  },
  {
    "compound": "COc1ccc(-c2nc(-c3cccn3CC(C)C)sc2-c2ccc(OC)cc2)cc1 [Ex. 4]",
    "LD50 at 240 h": "> 3000 mg/kg"
  },
  {
    "compound": "CCn1cccc1-c1nc(-c2ccc(OC)cc2)c(-c2ccc(OC)cc2)s1 [Ex. 1]",
    "LD50 at 240 h": "> 3000 mg/kg"
  }
]
